B1: PTPRD (parent)
chain: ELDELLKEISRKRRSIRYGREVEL

Variants of: B1
Procedure Text: protein stability index of a GFP-peptide fusion (GPS, HEK-293T) (PSI 1-6); higher = more stable;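 note: lentivirally expressed fusions sorted by FACS into six bins by GFP to DsRed ratio, PSI derived from sequencing read proportions per bin multiplied by bin number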
Recorded Conditions: c terminus: a fixed tail appended
Could you please report measured protein stability index for the items listed next?
Answers are plain numbers.

Some entries whose results are on file:
[[record]]
residue_change = "E23M"
parameter = "protein stability index"
observed = 2.08

[[record]]
residue_change = "L6T"
parameter = "protein stability index"
observed = 3.92

[[record]]
residue_change = "E8N"
parameter = "protein stability index"
observed = 2.44

[[record]]
residue_change = "R13I"
parameter = "protein stability index"
observed = 2.23

[[record]]
residue_change = "L6Y"
parameter = "protein stability index"
observed = 2.71


State the recorded protein stability index for every item in the following list.
1. S10V
2. V22G
3. K12T
4. S10F

Result block:
[2.48, 2.64, 2.56, 1.78]

State the recorded protein stability index for every item in the following list.
1. R17V
2. K7M
3. R13L
4. E1K
5. S15K

Result block:
2.27
2.26
1.46
2.26
1.88

State the recorded protein stability index for every item in the following list.
1. E4C
2. E1T
3. R17C
4. E21C
5. E1S
6. L5D
7. G19F
8. I9H

Result block:
1.57
3.25
2.34
2.55
4.1
3.73
1.71
3.09

State the recorded protein stability index for every item in the following list.
1. G19N
2. R14M

Result block:
1: 2.47; 2: 2.03

State the recorded protein stability index for every item in the following list.
1. E4W
2. S15A
3. K7S
4. K7L
5. E23Y
6. E8Q
7. K12F

Result block:
1. 2.29
2. 2.45
3. 2.6
4. 2.72
5. 1.92
6. 2.81
7. 1.29

State the recorded protein stability index for every item in the following list.
1. E4F
2. I16K
3. S10M
4. E1C
5. R11T
6. E4Q
7. L24W

Result block:
1: 2.39; 2: 1.9; 3: 2.24; 4: 2.07; 5: 3.21; 6: 1.99; 7: 2.42

State the recorded protein stability index for every item in the following list.
1. L24S
2. E23N
3. E21A
4. E1I

Result block:
1. 2.69
2. 2.54
3. 2.16
4. 1.77

State the recorded protein stability index for every item in the following list.
1. G19M
2. E8D
3. K12G

Result block:
1. 2.41
2. 2.92
3. 2.26
